This listing pairs compounds with measured Population Mitochondria Different-Phenotype (%).
# Test system: HEK-293T
# EXPERIMENTAL_DETAILS: Multiplex assay against HEK293T
# Format: toxicity, cell-based
# SETTINGS: human, 12 h, 1 µM, compound concentration 1 uM, replicate 2
PROPERTY_MEASURED: Population Mitochondria Different-Phenotype (%)

COMPOUND | TEST_SYSTEM | VALUE_REPORTED
O=C(Cc1ccc(-c2ccc(OCCN3CCOCC3)cc2)cn1)NCc1ccccc1 [TIRBANIBULIN] | HEK-293T | 23
CN(C)C(=O)C(CCN1CCC(O)(c2ccc(Cl)cc2)CC1)(c1ccccc1)c1ccccc1.Cl [LOPERAMIDE HYDROCHLORIDE] | HEK-293T | 95
Cl.O=c1c2cccn2c2ccccc2n1CCCN1CCC(c2ccc(Cl)cc2)CC1 | HEK-293T | 65
C=CCn1c(=O)c2cnc(Nc3ccc(N4CCN(C)CC4)cc3)nc2n1-c1cccc(C(C)(C)O)n1 [ADAVOSERTIB] | HEK-293T | 16
